System: Bovine cardiac myofibrils
Test: Dose-dependent myofibril ATPase modulation (calcium-buffered, pyruvate kinase and lactate dehydrogenase-coupled ATPase assay at pCa25)
Format: biochemical
Conditions: concentration at which ATPase activity was 1.4-fold higher than the bottom of the dose curve, mean of a minimum of two independent tests
Use 0.9 µM as the dividing line for AC1.4, with the line itself on the yes side and lower values as no.

Reference set, count: 5
Record Cc1[nH]c(S(=O)(=O)NC23COc4cc(F)c(Cl)cc4C2C3)cc1C(=O)N1CC(C#N)C1 (centres unmarked) ; criterion: AC1.4 no lower than 0.9 µM. Met?
yes

One more molecule: `CNc1cc2c(cc1S(=O)(=O)NCCc1cc3ccccc3[nH]1)c(=O)[nH]c(=O)n2C`
yes

Proceed to `Cc1[nH]c(S(=O)(=O)N[C@@H]2Cc3ccc(Cl)cc3C2)cc1C(=O)N1CC(C)(C#N)C1`
no

What do you have for Cc1nc2cc(C)c(S(=O)(=O)Nc3ccc(N4C[C@@H](C)C[C@H](C)C4)nc3)cc2c(=O)[nH]1 (racemic) ?
yes

// repeat for `CNc1cc2nc(C)[nH]c(=O)c2cc1S(=O)(=O)N[C@H]1CCc2c([nH]c3ccccc23)C1` and report
yes

Continuing:
Decide: AC1.4 of `COc1cc2c(cc1S(=O)(=O)N[C@H]1C[C@H](n3cc(C(F)(F)F)c(C)n3)C1)c(=O)[nH]c(=O)n2C` >= 0.9 µM?
no

Another molecule to check: `Cc1[nH]c(S(=O)(=O)N[C@H]2C[C@H](c3cc(C(F)(F)F)ccn3)C2)cc1C(=O)N1CC(C#N)C1`
no

Also `Cc1cc(S(=O)(=O)N[C@@H]2COc3cc(F)c(Cl)cc3[C@@H]2O)cc(N2CC(C(F)F)C2)n1` , if possible.
yes

Repeat for the following molecule: CNc1ccc(S(=O)(=O)Nc2ccc(N3C[C@H](C)C[C@@H](C)C3)nc2)cc1C#N (racemic)
yes

Moving on to the next molecule: `[2H]C([2H])([2H])c1[nH]c(S(=O)(=O)N[C@@H]2Cc3cc(F)c(Cl)cc3C2)cc1C(=O)N1CC(OC(F)(F)F)C1`
no

Please do the same for `CNc1cc2c(cc1S(=O)(=O)N[C@]1(C)C[C@H](Nc3cccc(F)c3)C1)c(=O)[nH]c(=O)n2C` as well.
no

Then what about the molecule `Cc1[nH]c(S(=O)(=O)N[C@H]2C[C@@H](c3cccc(C(F)(F)F)c3)C2)cc1C(=O)N1CC(C)(C#N)C1` ?
yes

Next molecule: `CNc1cc2nc(C)[nH]c(=O)c2cc1S(=O)(=O)NC1CCN(c2cccc(F)c2)CC1`
yes
